System: 616215-338-R-J1-PDC complex spheroid viability;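 note: spheroids exposed to agents for seven days before viability readout; 100% = DMSO vehicle control viability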
Test: Anticancer human tumor 616215-338-R-J1-PDC patient-derived colon adenocarcinoma cell line growth inhibition [RAS]
Settings: second compound 1 µM; first compound 0.0949 µM; active compounds read low
measurement-type: viability, T/C (%)
One number for each entry, in %.

As a guide, the following entries are already answered.
Summary for this compound, CCc1c2c(nc3ccc(O)cc13)-c1cc3c(c(=O)n1C2)COC(=O)[C@]3(O)CC + C#Cc1c(F)ccc2cc(O)cc(-c3ncc4c(N5CC6CCC(C5)N6)nc(OCC56CCCN5CC(F)C6)nc4c3F)c12 : viability, T/C is 20.2

Summary for this compound, CC1(C)CCC(Nc2ncc(C(F)(F)F)c(-c3c[nH]c4c(P(C)(C)=O)c(C#N)ccc34)n2)CN1 (centres undefined) + C#Cc1c(F)ccc2cc(O)cc(-c3ncc4c(N5CC6CCC(C5)N6)nc(OCC56CCCN5CC(F)C6)nc4c3F)c12 : viability, T/C is 27.8

Summary for this compound, CC1(C)CCC(Nc2ncc(C(F)(F)F)c(-c3c[nH]c4c(P(C)(C)=O)c(C#N)ccc34)n2)CN1 (centres undefined) + C=CC(=O)N1CCN(c2nc(OCC3CCCN3C)nc3c(F)c(-c4nc(N)cc(C)c4C(F)(F)F)c(Cl)cc23)C(C)C1 : viability, T/C is 34.7

Proceeding to the next compound to report its viability, T/C.
Summary for this compound, CCc1c2c(nc3ccc(O)cc13)-c1cc3c(c(=O)n1C2)COC(=O)[C@]3(O)CC + C=CC(=O)N1CCN(c2nc(OCC3CCCN3C)nc3c(F)c(-c4nc(N)cc(C)c4C(F)(F)F)c(Cl)cc23)C(C)C1 : viability, T/C is 22.9

// data source = PubChem BioAssay AID2060898
